B1: Keratin, type II cytoskeletal 2 epidermal (Homo sapiens), P35908 (parent)
chain: MSCQISCKSRGRGGGGGGFRGFSSGSAVVSGGSRRSTSSFSCLSRHGGGGGGFGGGGFGSRSLVGLGGTKSISISVAGGGGGFGAAGGFGGRGGGFGGGSSFGGGSGFSGGGFGGGGFGGGRFGGFGGPGGVGGLGGPGGFGPGGYPGGIHEVSVNQSLLQPLNVKVDPEIQNVKAQEREQIKTLNNKFASFIDKVRFLEQQNQVLQTKWELLQQMNVGTRPINLEPIFQGYIDSLKRYLDGLTAERTSQNSELNNMQDLVEDYKKKYEDEINKRTAAENDFVTLKKDVDNAYMIKVELQSKVDLLNQEIEFLKVLYDAEISQIHQSVTDTNVILSMDNSRNLDLDSIIAEVKAQYEEIAQRSKEEAEALYHSKYEELQVTVGRHGDSLKEIKIEISELNRVIQRLQGEIAHVKKQCKNVQDAIADAEQRGEHALKDARNKLNDLEEALQQAKEDLARLLRDYQELMNVKLALDVEIATYRKLLEGEECRMSGDLSSNVTVSVTSSTISSNVASKAAFGGSGGRGSSSGGGYSSGSSSYGSGGRQSGSRGGSGGGGSISGGGYGSGGGSGGRYGSGGGSKGGSISGGGYGSGGGKHSSGGGSRGGSSSGGGYGSGGGGSSSVKGSSGEAFGSSVTFSFR

variants of: B1; details: with KRT19, P08727
Sequence (P08727 whole entry): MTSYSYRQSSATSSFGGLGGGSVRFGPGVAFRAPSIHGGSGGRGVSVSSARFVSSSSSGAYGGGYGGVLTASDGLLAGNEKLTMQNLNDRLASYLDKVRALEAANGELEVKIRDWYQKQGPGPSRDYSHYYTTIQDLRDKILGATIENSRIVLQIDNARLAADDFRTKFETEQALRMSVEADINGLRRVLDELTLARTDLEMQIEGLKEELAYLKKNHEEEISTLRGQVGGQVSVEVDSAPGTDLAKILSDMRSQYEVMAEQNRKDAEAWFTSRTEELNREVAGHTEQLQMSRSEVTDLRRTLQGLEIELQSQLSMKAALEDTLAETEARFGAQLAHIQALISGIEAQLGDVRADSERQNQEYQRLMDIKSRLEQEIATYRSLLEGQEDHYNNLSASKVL
measured-parameter: effect of a mutation on the interaction

>>> df
   variant_designation                       measured_parameter  recorded_value
0                G219D  effect of a mutation on the interaction  with no effect
1                L484P  effect of a mutation on the interaction  with no effect
2                N186K  effect of a mutation on the interaction  with no effect
